Tested on: Escherichia coli
Assay: Antibacterial activity against […] Escherichia coli TEM
Assay type: functional
readout.label: MIC

* O=C(C1=NC(c2c[nH]c3ccccc23)CN1)c1c[nH]c2cc(Br)ccc12 (configuration not stated) [SPONGOTINE B] | > 25 µg/mL
* O=C1NC[C@@H](c2c[nH]c3cc(Br)ccc23)N=C1c1c[nH]c2ccccc12 [(R)-6'-DEBROMOHAMACANTHIN B] | > 25 µg/mL
* O=C1N[C@@H](c2c[nH]c3ccccc23)CN=C1c1c[nH]c2ccccc12 | > 25 µg/mL
* O=C1NC[C@@H](c2c[nH]c3cc(Br)ccc23)N[C@H]1c1c[nH]c2ccccc12 | > 25 µg/mL
* O=C1NC[C@@H](c2c[nH]c3ccccc23)N[C@H]1c1c[nH]c2cc(Br)ccc12 | > 25 µg/mL
* O=C1NC[C@@H](c2c[nH]c3ccccc23)N=C1c1c[nH]c2ccccc12 | > 25 µg/mL
* O=C1N[C@H](c2c[nH]c3cc(Br)ccc23)CN[C@H]1c1c[nH]c2ccccc12 | > 25 µg/mL

----------
Assay: Cytotoxicity against human A549 cell line
Format: cell-based
Conditions: A549 cells, read-out: ED50 (the source's name)
Recorded CC50 for the following compounds
readout.label: CC50 (µg/mL)

• O=C1N[C@@H](c2c[nH]c3cc(Br)ccc23)CN=C1c1c[nH]c2cc(Br)ccc12 = 4.49
• O=C1NC[C@@H](c2c[nH]c3cc(Br)ccc23)N=C1c1c[nH]c2ccccc12 [(R)-6'-DEBROMOHAMACANTHIN B] = 3.71
• O=C1NC[C@@H](c2c[nH]c3cc(Br)ccc23)N[C@H]1c1c[nH]c2ccccc12 = 4.2
• O=C1N[C@@H](c2c[nH]c3ccccc23)CN=C1c1c[nH]c2ccccc12 = 8.3
• O=C(C1=NC(c2c[nH]c3cc(Br)ccc23)CN1)c1c[nH]c2ccccc12 (stereo not drawn) = 6.82
• O=C1NC[C@H](c2c[nH]c3cc(Br)ccc23)N=C1c1c[nH]c2cc(Br)ccc12 = 2.14
• O=C1N[C@H](c2c[nH]c3cc(Br)ccc23)CN[C@H]1c1c[nH]c2ccccc12 = 7.5

----------
Experiment: Cytotoxicity against human SK-OV-3 cell line
Assay type: cell-based
Details: SK-OV-3 cells, read-out: ED50 (the source's name)
Label Y when CC50 is strictly below 5 µg/mL; at or above that, label N.

- COc1cccc2c1C(=O)c1c(O)c3c(c(O)c1C2=O)C[C@@](O)(C(=O)CO)C[C@@H]3O[C@H]1C[C@H](N)[C@H](O)[C@H](C)O1 [DOXORUBICIN]: Y
- O=C1NC[C@@H](c2c[nH]c3ccccc23)N[C@H]1c1c[nH]c2cc(Br)ccc12: N
- O=C1N[C@@H](c2c[nH]c3cc(Br)ccc23)CN=C1c1c[nH]c2cc(Br)ccc12 [HAMACANTHIN A]: N
- O=C1NC[C@@H](c2c[nH]c3ccccc23)N=C1c1c[nH]c2ccccc12: N
- O=C1NC[C@@H](c2c[nH]c3cc(Br)ccc23)N=C1c1c[nH]c2ccccc12 [(R)-6'-DEBROMOHAMACANTHIN B]: N
- O=C(C1=NC(c2c[nH]c3ccccc23)CN1)c1c[nH]c2cc(Br)ccc12 (stereo not drawn) [SPONGOTINE B]: N
- O=C(C1=NC(c2c[nH]c3cc(Br)ccc23)CN1)c1c[nH]c2ccccc12 (stereo not drawn) [SPONGOTINE A]: Y

The reported measurements were obtained from ChEMBL document CHEMBL1138404.
